Hey, just so you know, these numbers are from patent US20170165338A1.

# Target Or Test System: HLA-A*02 (human)
# Assay Details: UV-exchange b2m ELISA
I'd be grateful if you could share measured peptide exchange yield for these entries.

SLADTNSLAVV	50 to 75%
VTPVTVSAV	< 20%
SQIPAQPSV	20 to 49%
QLIQTLHAV	50 to 75%
AIVDLIHDI	20 to 49%
AQADHLPQL	20 to 49%
SLFETAWEA	50 to 75%

Next item in the queue.
For the binder shown here, `SLATKIVEA` , give the reported peptide exchange yield.
50 to 75%
